- target or test system: isolated recombinant JAK1 kinase domain (Homo sapiens)
- Construct: The activity of the isolated recombinant JAK1 and JAK2 kinase domain was measured
- Sequence (P23458 875-1153 limits assumed): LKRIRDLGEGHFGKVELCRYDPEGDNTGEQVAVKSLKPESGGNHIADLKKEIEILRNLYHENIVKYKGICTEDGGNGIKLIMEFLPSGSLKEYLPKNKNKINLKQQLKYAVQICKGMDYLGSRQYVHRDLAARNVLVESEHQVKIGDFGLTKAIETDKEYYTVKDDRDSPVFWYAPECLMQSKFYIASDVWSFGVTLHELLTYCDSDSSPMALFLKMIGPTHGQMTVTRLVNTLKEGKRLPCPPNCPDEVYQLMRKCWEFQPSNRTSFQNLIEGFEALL
- test: JAK1 enzyme assay (Caliper LabChip, Ki)
- Type: biochemical
- conditions: recombinant JAK1 kinase domain, 25 μM ATP
measured endpoint: Ki (nM)
One number for each entry, in nM.

Can you look up Ki on isolated recombinant JAK1 kinase domain (Homo sapiens) for CC(C)Sc1ccc(OC(F)F)c(-c2nn(CC(=O)N3CCC(N(C)CC(=O)N4CCOCC4)CC3)cc2NC(=O)c2cnn3cccnc23)c1 [Example 154] ?
0.42

Can you look up Ki on isolated recombinant JAK1 kinase domain (Homo sapiens) for CSc1ccc(OC(F)F)c(-c2nn(CC(=O)N3CCN(CC4CCN(CC(=O)N(C)C)CC4)CC3)cc2NC(=O)c2cnn3cccnc23)c1 [Example 33] ?
0.38

Can you look up Ki on isolated recombinant JAK1 kinase domain (Homo sapiens) for CSc1ccc(OC(F)F)c(-c2nn(CC(=O)N3CCN([C@H]4CC[C@H](C#N)CC4)CC3)cc2NC(=O)c2cnn3cccnc23)c1 [Example 100] ?
0.41

Can you look up Ki on isolated recombinant JAK1 kinase domain (Homo sapiens) for CSc1ccc(OC(F)F)c(-c2nn(CC(=O)N3CCC(N4CCCC(C#N)C4)CC3)cc2NC(=O)c2cnn3cccnc23)c1 (stereo not shown) [Example 31] ?
0.19

Can you look up Ki on isolated recombinant JAK1 kinase domain (Homo sapiens) for CSc1ccc(OC(F)F)c(-c2nn([C@H]3CCCNC3)cc2NC(=O)c2cnn3cccnc23)c1 [Example 9] ?
0.44

Can you look up Ki on isolated recombinant JAK1 kinase domain (Homo sapiens) for CCN1CCN(C(=O)Cn2cc(NC(=O)c3cnn4cccnc34)c(-c3cc(SC4COC4)ccc3OC(F)F)n2)CC1 [Example 181] ?
0.8

Can you look up Ki on isolated recombinant JAK1 kinase domain (Homo sapiens) for CN1CCN(C2CCN(C(=O)Cn3cc(NC(=O)c4cnn5cccnc45)c(-c4cc(SC5CC5)ccc4OC(F)F)n3)CC2)CC1 [Example 164] ?
0.55

Can you look up Ki on isolated recombinant JAK1 kinase domain (Homo sapiens) for CSc1ccc(OC(F)F)c(-c2nn(CC(=O)N3CCC(N4CC(C#N)C4)CC3)cc2NC(=O)c2cnn3cccnc23)c1 [Example 59] ?
0.2

Can you look up Ki on isolated recombinant JAK1 kinase domain (Homo sapiens) for CC(C)Sc1ccc(OC(F)F)c(-c2nn(CC(=O)N3CCN(CC4CCOCC4)CC3)cc2NC(=O)c2cnn3cccnc23)c1 [Example 135] ?
0.43

Can you look up Ki on isolated recombinant JAK1 kinase domain (Homo sapiens) for CC(C)Sc1ccc(OC(F)F)c(-c2nn(CC(=O)N3CCN(CCCC#N)CC3)cc2NC(=O)c2cnn3cccnc23)c1 [Example 103] ?
0.33

Fill in Ki for each of the 3 molecules listed.
1. CC(C)Sc1ccc(OC(F)F)c(-c2nn(CC(=O)N3CCC(N4CCOCC4)CC3)cc2NC(=O)c2cnn3cccnc23)c1 [Example 102]
2. CSc1ccc(OC(F)F)c(-c2nn(CC(=O)N3C[C@@H]4CCN[C@@H]4C3)cc2NC(=O)c2cnn3cccnc23)c1 [Example 56]
3. CSc1ccc(OC(F)F)c(-c2nn(CC(=O)N3CCC(N4CCN(C)CC4)CC3)cc2NC(=O)c2cnn3cccnc23)c1 [Example 63]

1. 0.38
2. 0.41
3. 0.35
